Provenance of the data: paper PMC6364417

Tested on: NHEM (normal human epidermal melanocytes)
Assay text: Dose-response curves and IC50 in non-cancer cells, cell viability, 72 h
Measurement setup: melanocytes (NHEM)
Parameter measured: effect on healthy cells, cell viability (in words)

Compound	Observed
CC(C)(C)c1nc(-c2cccc(NS(=O)(=O)c3c(F)cccc3F)c2F)c(-c2ccnc(N)n2)s1 [Dabrafenib]	did not have any effect
CCCS(=O)(=O)Nc1ccc(F)c(C(=O)c2c[nH]c3ncc(-c4ccc(Cl)cc4)cc23)c1F [Vemurafenib]	did not have any effect
NC(=O)Nc1cc(-c2cccc(F)c2)sc1C(=O)N[C@H]1CCCNC1 [AZD7762]	very modest effects
C=CCn1c(=O)c2cnc(Nc3ccc(N4CCN(C)CC4)cc3)nc2n1-c1cccc(C(C)(C)O)n1 [MK-1775, reference compound]	very modest effects

###

System: 501Mel cells (parental)
Assay text: Kinase inhibitor library screening, PrestoBlue cell viability, 1 or 10 μM, 72 h
Measurement setup: 501Mel Parental; 10μΜ; 72 h; in %
Parameter measured: Cell viability in kinase inhibitor library screening, 501Mel Parental, 10μΜ

Compound	Observed
COc1cccc2cc(-c3nc([C@H]4CC[C@H](C(=O)O)CC4)n4ncnc(N)c34)[nH]c12 [OSI-027]	14.4
Cn1c(=O)n(-c2ccc(C(C)(C)C#N)cc2)c2c3cc(-c4cnc5ccccc5c4)ccc3ncc21 [BEZ235 (NVP-BEZ235)]	2.6
O=C1NC(=O)C(=Cc2ccc(-c3ccc(F)cc3)o2)S1 (stereo in doubt) [CAY10505]	97.3
Cn1cnc(N)c2ncnc1-2 [3-Methyladenine]	107.1
c1cncc(CN2CCC(n3ncc4c(N5CCOCC5)nc(-c5ccc6[nH]ccc6c5)nc43)CC2)c1 [WAY-600]	3.0
CO[C@H]1C[C@@H]2CC[C@@H](C)[C@@](O)(O2)C(=O)C(=O)N2CCCC[C@H]2C(=O)O[C@H]([C@H](C)C[C@@H]2CC[C@@H](O)[C@H](OC)C2)CC(=O)[C@H](C)/C=C(\C)[C@@H](O)[C@@H](OC)C(=O)[C@H](C)C[C@H](C)/C=C/C=C/C=C/1C [Rapamycin (Sirolimus)]	77.5
CC1(COc2ccc3c(c2)ncn3-c2ccc3cccc(N4CCC(N)CC4)c3n2)COC1 [Crenolanib (CP-868596)]	12.0
CC(C)n1nc(-c2ccc3oc(N)nc3c2)c2c(N)ncnc21 [INK 128]	5.9
CC(C)(C)c1nc(-c2cccc(NS(=O)(=O)c3c(F)cccc3F)c2F)c(-c2ccnc(N)n2)s1 [Dabrafenib (GSK2118436)]	72.8
COc1ncc(-c2ccc3nccc(-c4ccnnc4)c3c2)cc1NS(=O)(=O)c1ccc(F)cc1F [GSK2126458]	0.9
Nc1ccc(-c2ccc3ncc4ccc(=O)n(-c5cccc(C(F)(F)F)c5)c4c3c2)cn1 [Torin 2]	0.8
COCCOc1ccc2c(c1)ncn2-c1ccc2cccc(N3CCC(N)CC3)c2n1 [CP 673451]	90.0
CN(C)C1CCN(C(=O)c2ccc(NC(=O)Nc3ccc(-c4nc(N5CCOCC5)nc(N5CCOCC5)n4)cc3)cc2)CC1 [PF-05212384 (PKI-587)]	1.3
CNC(=O)Nc1ccc(-c2nc(N3CC4CCC(C3)O4)c3cnn(C4CCC5(CC4)OCCO5)c3n2)cc1 [WYE-125132]	5.8
Cc1nc(NC(=O)N2CCC[C@H]2C(N)=O)sc1-c1csc(C(C)(C)C)n1 [A66]	85.2
Nc1ccc(C(=O)Nc2cccc(-c3nc(N4CCOCC4)c4oc5ncccc5c4n3)c2)cn1 [YM201636]	44.1
COC(=O)Nc1ccc(-c2nc(N3CCOCC3)c3cnn(C4CCN(C(=O)OC)CC4)c3n2)cc1 [WYE-354]	21.3
COc1ccc(-c2ccc3c(N4CCOCC4)nc(N4C[C@@H](C)O[C@@H](C)C4)nc3n2)cc1CO [Ku-0063794]	16.9
O=C(NCCCNc1nc(Nc2cccc(NC(=O)N3CCCC3)c2)ncc1I)c1cccs1 [BX-795]	82.7
Cc1c(CN2CCN(C(=O)[C@H](C)O)CC2)sc2c(N3CCOCC3)nc(-c3cnc(N)nc3)nc12 [GDC-0980 (RG7422)]	1.0
O=C(Nc1cccc(Nc2ncc(Br)c(NCCc3cnc[nH]3)n2)c1)N1CCCC1 [BX-912]	63.6
CO[C@H]1C[C@@H]2CC[C@@H](C)[C@@](O)(O2)C(=O)C(=O)N2CCCC[C@H]2C(=O)O[C@H]([C@H](C)C[C@@H]2CC[C@@H](OC(=O)C(C)(CO)CO)[C@H](OC)C2)CC(=O)[C@H](C)/C=C(\C)[C@@H](O)[C@@H](OC)C(=O)[C@H](C)C[C@H](C)/C=C/C=C/C=C/1C [Temsirolimus (Torisel)]	79.5
COc1ccc(-c2ccc3c(N4CCOC[C@@H]4C)nc(N4CCOC[C@@H]4C)nc3n2)cc1CO [AZD8055]	8.1

###

Test system: A375 cells (parental)
Assay text: Kinase inhibitor library screening, PrestoBlue cell viability, 1 or 10 μM, 72 h
Measurement setup: A375 Parental, 10μΜ, 72 h; in %
Overview of recorded cell viability, A375 Parental, 10μΜ for various compounds

Compound	cell viability, A375 Parental, 10μΜ
CC(C)(C)c1cc(C=C(C#N)C#N)cc(Br)c1O [AG-1024]	86.3
CCN1CCN(Cc2ccc(-c3cc4c(N[C@H](C)c5ccccc5)ncnc4[nH]3)cc2)CC1 [AEE788 (NVP-AEE788)]	70.3
C[C@@H]1CCN(C(=O)CC#N)C[C@@H]1N(C)c1ncnc2[nH]ccc12.O=C(O)CC(O)(CC(=O)O)C(=O)O [Tofacitinib citrate (CP-690550 citrate)]	93.7
CCO.N#CC(=C(/N)Sc1ccccc1N)/C(C#N)=C(\N)Sc1ccccc1N [U0126-EtOH]	39.4

###

Test system: 501Mel cells (parental)
Assay text: Kinase inhibitor library screening, PrestoBlue cell viability, 1 or 10 μM, 72 h
Measurement setup: 501Mel Parental; 10μΜ; 72 h; in %

Compound	Target system	cell viability, 501Mel Parental, 10μΜ
CN1CCN(c2ccc3nc(-c4c(N)c5c(F)cccc5[nH]c4=O)[nH]c3c2)CC1	501Mel cells (parental)	0.6
Nc1cccc(-c2cc3c(Oc4cccc(O)c4)ncnc3[nH]2)c1	501Mel cells (parental)	35.3
CNC(=O)c1c(F)cccc1Nc1nc(Nc2cc3c(cc2OC)CCN3C(=O)CN(C)C)nc2[nH]ccc12 [GSK1838705A, reference compound]	501Mel cells (parental)	0.4
CC(=O)Nc1cccc(-n2c(=O)n(C3CC3)c(=O)c3c(Nc4ccc(I)cc4F)n(C)c(=O)c(C)c32)c1	501Mel cells (parental)	64.9
CNC(=O)c1ccccc1Nc1nc(Nc2ccc(N3CCOCC3)cc2OC)ncc1Cl	501Mel cells (parental)	38.3
CN(c1ncccc1CNc1nc(Nc2ccc3c(c2)CC(=O)N3)ncc1C(F)(F)F)S(C)(=O)=O	501Mel cells (parental)	1.5
Cc1cnc(Nc2ccc(N3CCN(C)CC3)cc2)nc1Nc1cccc(S(=O)(=O)NC(C)(C)C)c1	501Mel cells (parental)	0.6
C#Cc1cccc(Nc2ncnc3cc(OCCOC)c(OCCO)cc23)c1 [Desmethyl Erlotinib (CP-473420)]	501Mel cells (parental)	82.4
CCc1cc(Nc2nccc(-c3c(-c4ccc(OC)c(C(=O)Nc5c(F)cccc5F)c4)nc4ccccn34)n2)c(OC)cc1N1CCC(N2CCN(S(C)(=O)=O)CC2)CC1 [GSK1904529A]	501Mel cells (parental)	98.3
Nc1ncnc2c1c(-c1cccc(OCc3ccccc3)c1)cn2C1CC(CN2CCCC2)C1 (stereo not shown)	501Mel cells (parental)	0.529
Cc1cnc(Nc2ccc(OCCN3CCCC3)cc2)nc1Nc1cccc(S(=O)(=O)NC(C)(C)C)c1 [TG101348 (SAR302503)]	501Mel cells (parental)	1.4
CC(C)(C)c1cc(/C=C(\C#N)C(N)=S)cc(C(C)(C)C)c1O	501Mel cells (parental)	44.8
COc1cc2c(N3CCN(C(=O)Nc4ccc(OC(C)C)cc4)CC3)ncnc2cc1OCCCN1CCCCC1	501Mel cells (parental)	95.2
COc1cc2ncnc(Nc3ccc(O)c(Br)c3)c2cc1OC	501Mel cells (parental)	93.8
CS(=O)(=O)CCNCc1ccc(-c2ccc3ncnc(Nc4ccc(OCc5cccc(F)c5)c(Cl)c4)c3c2)o1.Cc1ccc(S(=O)(=O)O)cc1.Cc1ccc(S(=O)(=O)O)cc1 [Lapatinib Ditosylate (Tykerb)]	501Mel cells (parental)	33.4
CC(C)(C)c1cc(C=C(C#N)C#N)cc(Br)c1O	501Mel cells (parental)	98.3
C=CC(=O)Nc1cccc(Oc2nc(Nc3ccc(N4CCN(C)CC4)cc3)ncc2Cl)c1	501Mel cells (parental)	1.1
COc1cc2ncnc(Nc3cccc(Cl)c3)c2cc1OC	501Mel cells (parental)	70.7
COc1cc2ncnc(Nc3ccc(F)c(Cl)c3)c2cc1NC(=O)/C=C/CN1CCCCC1	501Mel cells (parental)	0.5
COc1cccc(-c2cc(=O)c3ccccc3o2)c1N	501Mel cells (parental)	79.8
C#Cc1cccc(Nc2ncnc3cc(OCCOC)c(OCCO)cc23)c1 [OSI-420 (Desmethyl Erlotinib)]	501Mel cells (parental)	100.2
CN(C)Cc1cccc(N/C(=C2\C(=O)Nc3cc(C(=O)N(C)C)ccc32)c2ccccc2)c1	501Mel cells (parental)	89.0
N#C/C(=C\c1ccc(O)c(O)c1)C(=O)NCc1ccccc1	501Mel cells (parental)	92.7
O=c1cc(N2CCOCC2)oc2c(-c3cccc4c3sc3ccccc34)cccc12	501Mel cells (parental)	61.0
O=C(NOCC1CC1)c1ccc(F)c(F)c1Nc1ccc(I)cc1Cl	501Mel cells (parental)	50.2
C=CC(=O)Nc1cc2c(Nc3ccc(F)c(Cl)c3)ncnc2cc1OCCCN1CCOCC1	501Mel cells (parental)	35.1
O=C(NOCC(O)CO)c1cc(Br)c(F)c(F)c1Nc1ccc(I)cc1F (stereo not shown)	501Mel cells (parental)	54.4
Cc1c(NC(=O)OC[C@@H]2COCCN2)cn2ncnc(Nc3ccc4c(cnn4Cc4cccc(F)c4)c3)c12	501Mel cells (parental)	87.7
CCOc1cc2ncc(C#N)c(Nc3ccc(F)c(Cl)c3)c2cc1NC(=O)/C=C/CN(C)C [Pelitinib (EKB-569)]	501Mel cells (parental)	89.9
CCO.N#CC(=C(/N)Sc1ccccc1N)/C(C#N)=C(\N)Sc1ccccc1N	501Mel cells (parental)	65.9
COc1cc2ncnc(Nc3cccc(Br)c3)c2cc1OC.Cl [PD153035 HCl]	501Mel cells (parental)	38.0
